meta.source: ChEMBL document CHEMBL1128689

# SUBJECT OF TEST: Cathepsin B (Homo sapiens)
# ASSAY DETAILS: Compound is evaluated for inhibition kinetic constant Kirr for the cathepsin B
Please go through the items and note down their kirr.
Param answer (str): number followed by unit.

Example entries and their recorded answers appear below.
1) CC(C)C[C@H](NC(=O)[C@H](CCc1ccccc1)N/C=C/S(=O)(=O)c1ccccc1)C(=O)NC(=O)NN1CCOCC1 = 0.17 s⁻¹
2) O=C(NC(=O)[C@H](Cc1ccccc1)NC(=O)[C@H](CCc1ccccc1)N/C=C/S(=O)(=O)c1ccccc1)NN1CCOCC1 = 0.17 s⁻¹
3) O=C(NC(=O)[C@H](Cc1ccc2ccccc2c1)NC(=O)[C@H](CCc1ccccc1)N/C=C/S(=O)(=O)c1ccc2ccccc2c1)NN1CCOCC1 = 0.061 s⁻¹

input: # get_value(readout='kirr', item= "O=C(NC(=O)[C@H](Cc1cc(I)c(O)c(I)c1)NC(=O)[C@H](CCc1ccccc1)N/C=C/S(=O)(=O)c1ccccc1)NN1CCOCC1" )
output: 0.36 s⁻¹
